All values here come from ChEMBL document CHEMBL1155066.

# experimental target: Cathepsin S (Homo sapiens, UniProt P25774)
# Sequence (P25774 whole entry): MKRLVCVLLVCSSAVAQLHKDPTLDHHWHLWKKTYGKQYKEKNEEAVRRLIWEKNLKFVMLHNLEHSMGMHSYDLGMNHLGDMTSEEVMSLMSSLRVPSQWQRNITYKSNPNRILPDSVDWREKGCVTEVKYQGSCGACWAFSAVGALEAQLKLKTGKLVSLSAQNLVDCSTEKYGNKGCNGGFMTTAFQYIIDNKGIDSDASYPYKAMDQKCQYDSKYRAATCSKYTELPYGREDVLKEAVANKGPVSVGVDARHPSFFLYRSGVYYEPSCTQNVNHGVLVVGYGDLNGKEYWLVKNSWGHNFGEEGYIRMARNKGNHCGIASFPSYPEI
# measurement protocol: Inhibition of human recombinant cathepsin S by fluorescence assay
pIC50: −log10 of the molar value.
# binarize pIC50: threshold 7 inclusive, high side met, low side not met

Please review the following examples before continuing.
mol: N#Cc1ncc2cc(Cc3ccc(Cl)cc3)n(CCc3cccc(Cl)c3)c2n1
label value: not met
//
mol: N#Cc1ncc2cc(CNc3ccccc3)n(CCC3CCCCC3)c2n1
label value: met
//
mol: N#Cc1ncc2cc(COc3cccc(C(N)=O)c3)n(CCC3CCCCC3)c2n1
label value: met

Hi, just wondering whether `N#Cc1ncc2cc(Cc3cccc4ccccc34)n(CCC3CCCCC3)c2n1` shows pIC50 of 7 or higher.
not met

Hi, just wondering whether `CC(=O)Nc1ccc(OCc2cc3cnc(C#N)nc3n2CCC2CCCCC2)cc1` shows pIC50 of 7 or higher.
met

Hi, just wondering whether `CN(Cc1cc2cnc(C#N)nc2n1CCC1CCCCC1)c1ccccc1` shows pIC50 of 7 or higher.
met

Hi, just wondering whether `N#Cc1ncc2cc(CSc3ccncc3)n(CCC3CCCCC3)c2n1` shows pIC50 of 7 or higher.
met

Hi, just wondering whether `CC(=O)N1CC=C(c2ccc(OCc3cc4cnc(C#N)nc4n3CCC3CCCCC3)cc2)CC1` shows pIC50 of 7 or higher.
met

Hi, just wondering whether `CCC(=O)Nc1ccc(OCc2cc3cnc(C#N)nc3n2CCC2CCCCC2)cc1` shows pIC50 of 7 or higher.
met

Hi, just wondering whether `CC(C)(C)CCn1c(Cc2ccc(Cl)cc2)cc2cnc(C#N)nc21` shows pIC50 of 7 or higher.
met

Hi, just wondering whether `N#Cc1ncc2cc(COc3ccc(C(=O)O)cc3)n(CCC3CCCCC3)c2n1` shows pIC50 of 7 or higher.
met

Hi, just wondering whether `N#Cc1ncc2cc(Cc3ccc(Cl)cc3)n(CCN3CCCCC3)c2n1` shows pIC50 of 7 or higher.
not met

---

Task for the reader: assign each of the following compounds its reported Cmax.
# measurement protocol: Cmax in Sprague-Dawley rat at 1.0 mg/kg, po
# Format: ADME, organism-based
# Design: dose 1 mg/kg, route oral
# test parameters: in vivo
Numbers only, in nM.

Worked examples follow.
mol: N#Cc1ncc2cc(COc3ccc(C(N)=O)cc3)n(CCC3CCCCC3)c2n1
reported result: 25
--
mol: CC(=O)N1CCN(c2ccc(OCc3cc4cnc(C#N)nc4n3CCC3CCCCC3)cc2)CC1
reported result: 34
--
mol: CC(=O)N1CC=C(c2ccc(OCc3cc4cnc(C#N)nc4n3CCC3CCCCC3)cc2)CC1
reported result: 43

# context switch: different compound, same Cmax
// query Cmax value for entry `CC(=O)N1CCC(c2ccc(OCc3cc4cnc(C#N)nc4n3CCC3CCCCC3)cc2)CC1`
17

---

# measurement protocol: Half life in Sprague-Dawley rat at 1.6 mg/kg, iv
# Type: ADME, organism-based
# Parameters: dose 1.6 mg/kg, route intravenous
# test parameters: in vivo
measure name: half-life (min)
Give bare numbers, in min.

// query half-life value for entry `N#Cc1ncc2cc(COc3ccc(C(N)=O)cc3)n(CCC3CCCCC3)c2n1`
42

---

Task for the reader: assign each of the following molecules its reported IC50.
# experimental target: Procathepsin L (Homo sapiens, UniProt P07711)
# Sequence (P07711 whole entry): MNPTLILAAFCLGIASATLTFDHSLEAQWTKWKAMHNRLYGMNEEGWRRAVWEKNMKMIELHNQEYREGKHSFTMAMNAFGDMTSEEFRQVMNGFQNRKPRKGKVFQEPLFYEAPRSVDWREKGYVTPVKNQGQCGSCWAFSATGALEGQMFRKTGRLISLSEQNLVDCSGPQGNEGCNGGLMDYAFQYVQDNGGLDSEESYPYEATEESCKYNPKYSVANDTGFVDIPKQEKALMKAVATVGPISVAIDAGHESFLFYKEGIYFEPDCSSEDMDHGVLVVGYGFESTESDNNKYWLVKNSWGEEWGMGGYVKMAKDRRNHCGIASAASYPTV
# measurement protocol: Inhibition of human recombinant cathepsin L by fluorescence assay

Below are 2 molecules. Give each one its IC50.
1. N#Cc1ncc2cc(Cc3ccc(Cl)cc3)n(CCc3cccc(Cl)c3)c2n1
2. CCC(=O)Nc1ccc(OCc2cc3cnc(C#N)nc3n2CCC2CCCCC2)cc1

1. 40 nM
2. > 4000 nM

Below are 7 molecules. Give each one its IC50.
1. N#Cc1ncc2cc(Cc3ccc(Cl)cc3)n(CC3CCCCC3)c2n1
2. CN(Cc1cc2cnc(C#N)nc2n1CCC1CCCCC1)c1ccccc1
3. CC(C)(C)CCCn1c(Cc2ccc(Cl)cc2)cc2cnc(C#N)nc21
4. N#Cc1ncc2cc(COc3cccc(C(N)=O)c3)n(CCC3CCCCC3)c2n1
5. CC(=O)N1CCN(c2ccc(OCc3cc4cnc(C#N)nc4n3CCC3CCCCC3)cc2)CC1
6. CC(C)(C)CCn1c(Cc2ccc(Cl)cc2)cc2cnc(C#N)nc21
7. N#Cc1ncc2cc(Cc3ccc(Cl)cc3)n(CCc3ccccc3)c2n1

1. 370 nM
2. > 1000 nM
3. > 1000 nM
4. > 1000 nM
5. > 4000 nM
6. 18 nM
7. 23 nM

---

Task for the reader: assign each of the following compounds its reported IC50.
# experimental target: Cathepsin S (Homo sapiens, UniProt P25774)
# measurement protocol: Inhibition of human recombinant cathepsin S by fluorescence assay
One number for each entry, in µM.

mol: N#Cc1ncc2cc(Cc3ccc(Cl)cc3)n(CCc3ccccc3)c2n1
experimental target: Cathepsin S (Homo sapiens, UniProt P25774)
IC50 / µM: 0.064

mol: N#Cc1ncc2cc(CC3CCCCC3)n(CCC3CCCCC3)c2n1
experimental target: Cathepsin S (Homo sapiens, UniProt P25774)
IC50 / µM: 0.14

mol: N#Cc1ncc2cc(Cc3ccc(Cl)cc3)n(CCCC3CCCCC3)c2n1
experimental target: Cathepsin S (Homo sapiens, UniProt P25774)
IC50 / µM: 0.15

mol: COc1ccc(Cc2cc3cnc(C#N)nc3n2CCC2CCCCC2)cc1
experimental target: Cathepsin S (Homo sapiens, UniProt P25774)
IC50 / µM: 0.11

mol: N#Cc1ncc2cc(Cc3ccc(Cl)cc3)n(CCc3ccc(Cl)cc3)c2n1
experimental target: Cathepsin S (Homo sapiens, UniProt P25774)
IC50 / µM: 0.019

mol: CC(C)(C)CCCn1c(Cc2ccc(Cl)cc2)cc2cnc(C#N)nc21
experimental target: Cathepsin S (Homo sapiens, UniProt P25774)
IC50 / µM: 0.32

mol: N#Cc1ncc2cc(COc3cccc(CCC(=O)O)c3)n(CCC3CCCCC3)c2n1
experimental target: Cathepsin S (Homo sapiens, UniProt P25774)
IC50 / µM: 0.006

mol: N#Cc1ncc2cc(Cc3ccc(Cl)cc3)n(CCC3CCCCCCC3)c2n1
experimental target: Cathepsin S (Homo sapiens, UniProt P25774)
IC50 / µM: 0.099

mol: N#Cc1ncc2cc(Cc3ccc(Cl)cc3)n(CCC3CCCCC3)c2n1
experimental target: Cathepsin S (Homo sapiens, UniProt P25774)
IC50 / µM: 0.021

mol: N#Cc1ncc2cc(Cc3ccc(Cl)cc3)n(CC3CCCCC3)c2n1
experimental target: Cathepsin S (Homo sapiens, UniProt P25774)
IC50 / µM: 0.11

Below are 6 compounds. Give each one its IC50.
1. N#Cc1ncc2cc(COc3ccccn3)n(CCC3CCCCC3)c2n1
2. N#Cc1ncc2cc(COc3ccccc3)n(CCC3CCCCC3)c2n1
3. CC(=O)N1CCC(c2ccc(OCc3cc4cnc(C#N)nc4n3CCC3CCCCC3)cc2)CC1
4. CC(=O)N1CCN(c2ccc(OCc3cc4cnc(C#N)nc4n3CCC3CCCCC3)cc2)CC1
5. N#Cc1ncc2cc(Cc3ccc(Cl)cc3)n(CCC3CCCCCC3)c2n1
6. N#Cc1ncc2cc(Cc3ccc(Cl)cc3)n(CCC3CCCC3)c2n1

1: 0.011; 2: 0.01; 3: 0.015; 4: 0.009; 5: 0.033; 6: 0.007

// query IC50 value for entry `N#Cc1ncc2cc(COc3ccc(C(N)=O)cc3)n(CCC3CCCCC3)c2n1`
0.002

---

# experimental target: Procathepsin L (Homo sapiens, UniProt P07711)
# measurement protocol: Inhibition of human recombinant cathepsin L by fluorescence assay
pIC50: −log10 of the molar value.
Task for the reader: assign each of the following compounds its reported pIC50.

Worked examples follow.
mol: N#Cc1ncc2cc(Cc3ccc(Cl)cc3)n(CCc3ccc(Cl)cc3)c2n1
experimental target: Procathepsin L (Homo sapiens, UniProt P07711)
reported result: 7.07

mol: CC(=O)N1CCC(c2ccc(OCc3cc4cnc(C#N)nc4n3CCC3CCCCC3)cc2)CC1
experimental target: Procathepsin L (Homo sapiens, UniProt P07711)
reported result: < 6.00

mol: N#Cc1ncc2cc(CC3CCCCC3)n(CCC3CCCCC3)c2n1
experimental target: Procathepsin L (Homo sapiens, UniProt P07711)
reported result: < 6.00

mol: N#Cc1ncc2cc(Cc3ccc(Cl)cc3)n(CCC3CCCCCCC3)c2n1
experimental target: Procathepsin L (Homo sapiens, UniProt P07711)
reported result: < 6.00

Below are 5 compounds. Give each one its pIC50.
1. N#Cc1ncc2cc(COc3ccccn3)n(CCC3CCCCC3)c2n1
2. COc1ccc(Cc2cc3cnc(C#N)nc3n2CCC2CCCCC2)cc1
3. N#Cc1ncc2cc(Cc3ccc(Cl)cc3)n(CCN3CCCCC3)c2n1
4. N#Cc1ncc2cc(CSc3ccncc3)n(CCC3CCCCC3)c2n1
5. N#Cc1ncc2cc(COc3ccccc3)n(CCC3CCCCC3)c2n1

1. 6.10
2. < 6.00
3. < 6.00
4. < 6.00
5. < 6.00
